System: L1210
Experiment: Cytotoxicity against mouse L1210 cells
Format: functional, cell-based
readoutKind: log10 IC50 (log10 of the value in mg/L)
Please be aware that the numbers have been log10-transformed from IC50 in mg/L.

*Q* Return reported log10 IC50; argument: CC1(C)CCC[C@]2(C)[C@H]3C[C@@H](O)[C@]4(C)[C@H]5COC(=O)C5=CC[C@H]4[C@]3(C)CC[C@@H]12
*A* 0.20

*Q* CC1(C)CCC[C@]2(C)[C@H]3C[C@@H](O)[C@]4(C)[C@@H]5C(=CC[C@H]4[C@]3(C)CC[C@@H]12)C(=O)O[C@H]5O ?
*A* 0.36

*Q* How about CO[C@@H]1C[C@H]2[C@]3(C)CC[C@H]4C(C)(C)CCC[C@]4(C)[C@H]3C[C@@H](OC(C)=O)[C@]2(C)C2=C1C(=O)O[C@H]2O ?
*A* 0.34

*Q* Input CC(=O)O[C@@H]1C[C@@H]2[C@@]3(C)CCCC(C)(C)[C@@H]3CC[C@@]2(C)[C@@H]2CC=C3C(=O)O[C@@H](O)[C@@H]3[C@@]12C
*A* 1.12

*Q* Thanks! And CC(=O)O[C@@H]1C[C@@H]2[C@@]3(C)CCCC(C)(C)[C@@H]3CC[C@@]2(C)[C@@H]2CC=C3CO[C@@H](O)[C@@H]3[C@@]12C ?
*A* 0.32

*Q* Consider next the compound CO[C@@]12[C@H](COC(N)=O)C3=C(C(=O)C(C)=C(N)C3=O)N1C[C@@H]1N[C@@H]12 [MITOMYCIN] in the same way.
*A* -1.70
